List of solubility values.
# test_summary: Assessment of solubility: HT solubility in pION buffer, UV spectrophotometry
# experimental_context: pH 6.8, aqueous buffer, kinetic from dmso stock, Solubility (pH 6.8), pH 6.8
Use µg/mL as the unit, but write only the number.

Past entries and their recorded results:
1) Cc1ccc(OCc2ccc(CN3CCOC(C)(C)C3)cc2C#N)c(-c2csc(N3C[C@H]4CC[C@@H](C3)[C@H]4C(=O)O)n2)c1 8.1
2) Cc1ccc(OCc2ccc(C(=O)N3CCC[C@H](O)C3)cc2C)c(-c2csc(N3C[C@H]4CC[C@@H](C3)[C@H]4C(=O)O)n2)c1 12

Continue with the compound presented below.
Lab note: measured solubility of "Cc1ccc(OCc2ccc(C(=O)N(C)Cc3ccnn3C)cc2C)c(-c2csc(N3C[C@H]4CC[C@@H](C3)[C@H]4C(=O)O)n2)c1" was 34
